Below, each entry is listed with its recorded protein stability index.
B1: MYBL2 (parent)
chain: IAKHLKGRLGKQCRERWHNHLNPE

- Variants of: B1
- assay-details: protein stability index of a GFP-peptide fusion (GPS, HEK-293T) (PSI 1-6); higher = more stable;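 also: lentivirally expressed fusions sorted by FACS into six bins by GFP to DsRed ratio, PSI derived from sequencing read proportions per bin multiplied by bin number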
- experimental-context: c terminus: a fixed tail appended
measured-endpoint: protein stability index

1. K6F	2.94
2. K3E	2
3. K3A	2.84
4. R8C	2.23
5. E15K	2.18
6. R14Q	2.52
7. N19R	2.31
8. G10Q	1.96
9. H20N	2.1

Origin of values: the supplement of paper PMC10567573
